- Test system: Escherichia coli
- Method: Minimum inhibitory concentration against Escherichia coli A8 (inoculum, 10e5 cfu per spot)
- Assay type: functional
Assay Metric: MIC (µg/mL)

Example entries and their recorded answers appear below.
CC(=O)OCC1=C(C(=O)OC(c2ccccc2)c2ccccc2)N2C(=O)[C@@H](Nc3nc4cscc4[nH]3)C2SC1 (stereo partly specified) | 8
CC(=O)OCC1=C(C(=O)OC(C)(C)C)N2C(=O)[C@@H](Nc3nc4ccccc4n3C)C2SC1 (stereo partly specified) | 128

P: CC1=C(C(=O)OC(c2ccccc2)c2ccccc2)N2C(=O)[C@@H](Nc3nc4ccccc4[nH]3)C2SC1 (stereo partly specified)
Q: CC(=O)OCC1=C(C(=O)OC(c2ccccc2)c2ccccc2)N2C(=O)[C@@H](Nc3nc4ccccc4s3)C2SC1 (stereo partly specified)
# returns the entry with the larger MIC; inputs P and Q Your answer should be the label of the entry you select.
Q
(Q: 200 µg/mL, P: 8 µg/mL)

====

- Tested on: Staphylococcus aureus
- Method: Minimum inhibitory concentration against Staphylococcus aureus A6 (inoculum, 10e5 cfu per spot)
- Format: functional
Assay Metric: MIC (µg/mL)

1: CC(=O)OCC1=C(C(=O)OC(c2ccccc2)c2ccccc2)N2C(=O)[C@@H](Nc3nc4ccccc4[nH]3)C2SC1 (some centres undefined)
2: CC(=O)OCC1=C(C(=O)OC(c2ccccc2)c2ccccc2)N2C(=O)[C@@H](Nc3nc4cc(O)ccc4[nH]3)C2SC1 (some centres undefined)
Of 1 and 2 , whose reported MIC is numerically smaller? Your answer should be the label of the entry you select.
1

====

- Test system: Escherichia coli
- Method: Minimum inhibitory concentration against Escherichia coli A8 (inoculum, 10e5 cfu per spot)
- Format: functional
Assay Metric: MIC (µg/mL)

Example entries and their recorded answers appear below.
CC(=O)OCC1=C(C(=O)OC(c2ccccc2)c2ccccc2)N2C(=O)[C@@H](Nc3nc4c(C)cccc4[nH]3)C2SC1 (stereo partly drawn) | 16
CC1=C(C(=O)OC(c2ccccc2)c2ccccc2)N2C(=O)[C@@H](NC3=NC(c4ccc(O)c(O)c4)CN3)C2SC1 (stereo partly drawn) | 4
CC1=C(C(=O)OC(c2ccccc2)c2ccccc2)N2C(=O)[C@@H](NC3=NC(C)C(C)N3)C2SC1 (stereo partly drawn) | 32
CC1=C(C(=O)OC(c2ccccc2)c2ccccc2)N2C(=O)[C@@H](NC3=NC(c4ccc(C#N)cc4)CN3)C2SC1 (stereo partly drawn) | 4

1: Cc1nnc(SCC2=C(C(=O)OC(c3ccccc3)c3ccccc3)N3C(=O)[C@@H](Nc4nc5ccccc5[nH]4)C3SC2)s1 (stereo partly drawn)
2: CC(=O)OCC1=C(C(=O)OC(C)(C)C)N2C(=O)[C@@H](Nc3nc4cc([N+](=O)[O-])ccc4[nH]3)C2SC1 (stereo partly drawn)
# returns the entry with the larger MIC; inputs 1 and 2 Your answer should be the label of the entry you select.
2

a: CC1=C(C(=O)OC(c2ccccc2)c2ccccc2)N2C(=O)[C@@H](NC3=NC(c4ccccc4)CN3)C2SC1 (stereo partly drawn)
b: Cn1nnnc1SCC1=C(C(=O)OC(c2ccccc2)c2ccccc2)N2C(=O)[C@@H](Nc3nc4cc(O)ccc4[nH]3)C2SC1 (stereo partly drawn)
Of a and b , whose reported MIC is numerically smaller? Your answer should be the label of the entry you select.
b
(b: 0.25 µg/mL, a: 2 µg/mL)

====

- Test system: Proteus mirabilis
- Method: Minimum inhibitory concentration against Proteus mirabilis A18 (inoculum, 10e5 cfu per spot)
- Type: functional
Assay Metric: MIC (µg/mL)

Example entries and their recorded answers appear below.
CC(=O)OCC1=C(C(=O)OC(c2ccccc2)c2ccccc2)N2C(=O)[C@@H](Nc3nc4cscc4[nH]3)C2SC1 (stereo partly drawn) | 32
CC1=C(C(=O)OC(c2ccccc2)c2ccccc2)N2C(=O)[C@@H](Nc3nc4ccccc4[nH]3)C2SC1 (stereo partly drawn) | 8

P: CC(=O)OCC1=C(C(=O)OC(c2ccccc2)c2ccccc2)N2C(=O)[C@@H](Nc3nc4c(C)cccc4[nH]3)C2SC1 (stereo partly drawn)
Q: CC(=O)OCC1=C(C(=O)OC(c2ccccc2)c2ccccc2)N2C(=O)[C@@H](Nc3nc4cc(CN)ccc4[nH]3)C2SC1 (stereo partly drawn)
R: CC(=O)OCC1=C(C(=O)OC(c2ccccc2)c2ccccc2)N2C(=O)[C@@H](Nc3nc4cc(C(F)(F)F)ccc4[nH]3)C2SC1 (stereo partly drawn)
Exam item: list the entries in increasing order of MIC. // respond by listing labels in the order requested
P, Q, R
(P: 8 µg/mL, Q: 32 µg/mL, R: 128 µg/mL)

====

- Tested on: Enterobacter cloacae
- Method: Minimum inhibitory concentration against Enterobacter cloacae A13 (inoculum, 10e5 cfu per spot)
- Type: functional
We begin with a simple list: items and their reported MIC.

Example entries and their recorded answers appear below.
CC(=O)OCC1=C(C(=O)OC(c2ccccc2)c2ccccc2)N2C(=O)[C@@H](Nc3nc4c(C)cccc4[nH]3)C2SC1 (stereo not given in full) | ≥ 128 µg/mL
Cc1nnc(SCC2=C(C(=O)OC(c3ccccc3)c3ccccc3)N3C(=O)[C@@H](Nc4nc5ccccc5[nH]4)C3SC2)s1 (stereo not given in full) | ≥ 128 µg/mL
CC1=C(C(=O)OC(C)(C)C)N2C(=O)[C@@H](Nc3nc4ccccc4n3CC(=O)OC(C)(C)C)C2SC1 (stereo not given in full) | > 256 µg/mL
CC1=C(C(=O)OC(c2ccccc2)c2ccccc2)N2C(=O)[C@@H](NC3=NCCN3C)C2SC1 (stereo not given in full) | > 200 µg/mL
Cn1nnnc1SCC1=C(C(=O)OC(c2ccccc2)c2ccccc2)N2C(=O)[C@@H](Nc3nc4ccccc4[nH]3)C2SC1 (stereo not given in full) | > 128 µg/mL
CC1=C(C(=O)OC(c2ccccc2)c2ccccc2)N2C(=O)[C@@H](NC3=NC(c4ccc(O)c(O)c4)CN3)C2SC1 (stereo not given in full) | > 256 µg/mL
CC(=O)OCC1=C(C(=O)OC(C)(C)C)N2C(=O)[C@@H](Nc3nc4cc(N)ccc4[nH]3)C2SC1 (stereo not given in full) | 256 µg/mL
CO[C@@]1(NC2=NCCN2)C(=O)N2C(C(=O)OC(c3ccccc3)c3ccccc3)=C(C)CSC21 (stereo not given in full) | > 256 µg/mL
CC(=O)OCC1=C(C(=O)OC(c2ccccc2)c2ccccc2)N2C(=O)[C@@H](Nc3nc4cc(CC#N)ccc4[nH]3)C2SC1 (stereo not given in full) | > 256 µg/mL

# context switch: different compound, same MIC
Tell me the measured MIC of CC(=O)Nc1ccc2[nH]c(N[C@@H]3C(=O)N4C(C(=O)OC(C)(C)C)=C(COC(C)=O)CSC34)nc2c1 (stereo not given in full) , please.
> 256 µg/mL

====

- Test system: Staphylococcus aureus
- Method: Minimum inhibitory concentration against Staphylococcus aureus A6 (inoculum, 10e5 cfu per spot)
- Format: functional
Assay Metric: MIC (µg/mL)

CC1=C(C(=O)OC(c2ccccc2)c2ccccc2)N2C(=O)[C@@H](Nc3nc4ccccc4o3)C2SC1 (some centres undefined) | 8
CC(=O)OCC1=C(C(=O)OC(c2ccccc2)c2ccccc2)N2C(=O)[C@@H](Nc3nc4c(N)cccc4[nH]3)C2SC1 (some centres undefined) | 40
CO/N=C(\C(=O)N[C@@H]1C(=O)N2C(C(=O)O)=C(COC(C)=O)CS[C@H]12)c1csc(N)n1 | 4

I: CC(=O)OCC1=C(C(=O)OC(c2ccccc2)c2ccccc2)N2C(=O)[C@@H](Nc3nc4cc(F)ccc4[nH]3)C2SC1 (some centres undefined)
II: CC(=O)OCC1=C(C(=O)OC(c2ccccc2)c2ccccc2)N2C(=O)[C@@H](Nc3nc4cc(CO)ccc4[nH]3)C2SC1 (some centres undefined)
III: CC(=O)OCC1=C(C(=O)OC(c2ccccc2)c2ccccc2)N2C(=O)[C@@H](Nc3nc4cc(CN)ccc4[nH]3)C2SC1 (some centres undefined)
IV: CC(=O)OCC1=C(C(=O)OC(c2ccccc2)c2ccccc2)N2C(=O)[C@@H](Nc3nc4ccccc4s3)C2SC1 (some centres undefined)
V: CC(=O)OCC1=C(C(=O)OC(C)(C)C)N2C(=O)[C@@H](Nc3nc4ccccc4n3C)C2SC1 (some centres undefined)
Exam item: list the entries in increasing order of MIC. // respond by listing labels in the order requested
IV, I, III, II, V
(IV: 0.5 µg/mL, I: 2 µg/mL, III: 4 µg/mL, II: 8 µg/mL, V: 32 µg/mL)

P: CC(=O)OCC1=C(C(=O)OC(c2ccccc2)c2ccccc2)N2C(=O)[C@@H](Nc3nc4cc(C(F)(F)F)ccc4[nH]3)C2SC1 (some centres undefined)
Q: Cn1nnnc1SCC1=C(C(=O)OC(c2ccccc2)c2ccccc2)N2C(=O)[C@@H](Nc3nc4ccccc4[nH]3)C2SC1 (some centres undefined)
R: CC1(C)S[C@@H]2[C@H](/N=C/N3CCCCCC3)C(=O)N2[C@H]1C(=O)O
S: CC(=O)Nc1ccc2[nH]c(N[C@@H]3C(=O)N4C(C(=O)OC(C)(C)C)=C(COC(C)=O)CSC34)nc2c1 (some centres undefined)
T: CC(=O)OCC1=C(C(=O)OC(c2ccccc2)c2ccccc2)N2C(=O)[C@@H](Nc3nc4cc(CC#N)ccc4[nH]3)C2SC1 (some centres undefined)
// ranking: key=MIC, reverse=True // respond by listing labels in the order requested
R, S, Q, P, T
(R: 16 µg/mL, S: 8 µg/mL, Q: 4 µg/mL, P: 2 µg/mL, T: 1 µg/mL)

I: CC(=O)OCC1=C(C(=O)OC(c2ccccc2)c2ccccc2)N2C(=O)[C@@H](Nc3nc4c(O)cccc4[nH]3)C2SC1 (some centres undefined)
II: CC(=O)OCC1=C(C(=O)OC(c2ccccc2)c2ccccc2)N2C(=O)[C@@H](Nc3nc4c(C)cccc4[nH]3)C2SC1 (some centres undefined)
Of I and II , whose reported MIC is numerically smaller? Your answer should be the label of the entry you select.
I
(I: 2 µg/mL, II: 4 µg/mL)

a: CC(=O)OCC1=C(C(=O)OC(C)(C)C)N2C(=O)[C@@H](Nc3nc4ccc[nH]c-4n3)C2SC1 (some centres undefined)
b: CC(=O)OCC1=C(C(=O)OC(C)(C)C)N2C(=O)[C@@H](Nc3nc4cc([N+](=O)[O-])ccc4[nH]3)C2SC1 (some centres undefined)
c: CC(=O)OCC1=C(C(=O)OC(c2ccccc2)c2ccccc2)N2C(=O)[C@@H](Nc3nc4cscc4[nH]3)C2SC1 (some centres undefined)
d: CC(=O)OCC1=C(C(=O)OC(c2ccccc2)c2ccccc2)N2C(=O)[C@@H](Nc3nc4cc(C(=O)O)ccc4[nH]3)C2SC1 (some centres undefined)
Exam item: list the entries in increasing order of MIC. // respond by listing labels in the order requested
b, a, c, d
